Biological target: T1, AAV9 (adeno-associated virus 9)
T1 construct: also called adeno-associated virus serotype 9
Experiment: SPR, AAV amine-coupled to CM5 chip;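 further: nanobodies flowed as analyte at seven concentrations spanning 1–100 nM over immobilized AAV (500–800 RU), kinetic constants derived by fitting the binding curves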
Please mark True if the recorded kon is equal to or greater than 100000 M⁻¹ s⁻¹, and False if it falls below.

binder="A4-060 (VHH) VHH: VQLQESGGGLVQPGGSLRLSCAASGSTFSLNTMGWYRQAPGKQREIVATVTRGGSTNYAESVKGRFTISRDNAKNTVYLQMNSLRPEDTAVYYCHVDEVRQSTWTTSNLWGQGTQVTVSS" category_label=False
binder="A4-052 (VHH) VHH: VQLQESGGGLVQPGGSLRLSCAASGSIFIINTMGWYRQAPGKQRELVAAVTRGGSTNYADSVKGRFTISRDNAKNTVYLQMNSLRPEDTAVYYCHVDEVRQSSWTTSNLWGQGTQVTVSS" category_label=True
binder="A4-087 (VHH) VHH: VQLQESGGGLVQPGGSLRLSCAASGSRFSLNTMGWYRQAPGKQRELVAAVTRGGNTNYGDFVKGRFTISRDNAKNTVYLQMNSLRPEDTAVYYCHVDELRESSWTTSNLWGQGTQVTVSS" category_label=False
binder="A4-081 (VHH) VHH: VQLQESGGGLVQPGGSLRLSCAASGSRFSLNTMGWYRQAPGKQRELVATVTRGGSTNYADSVKGRFTISRDNAKNTVYLQMNSLRPEDTAVYYCHVDELRESGWTTSNLWGQGTQVTVSS" category_label=False
binder="A4-062 (VHH) VHH: VQLQESGGGLVQAGGSLRLSCAASGSSFSINAMGWYRQAPGKQRELVATVTRGGTTNYADSVKGRFTISRDNPKNTVYLQMNSLRPEDTAVYYCHLDEVRESSWTTSNLWGQGTQVTVSS" category_label=False
binder="A4-080 (VHH) VHH: VQLQESGGGLVQPGGSLRLSCAASGSRFSLNTMGWYRQAPGKQRELVATVTRGGSTNYADFVKGRFTISRDNAKNTVYLQMNSLRPEDTAVYYCHVDELRESGWTTSNLWGQGTQVTVSS" category_label=True
binder="A4-082 (VHH) VHH: VQLQESGGGLVQPGGSLRLSCAASGSRFSLNTMGWYRQAPGKQRELVATVTRGGSTKYADFVKGRFTISRDNAKNTVYLQMNSLRPEDTAVYYCHVDELRESGWTTSNLWGQGTQVTVSS" category_label=False
binder="A4-096 (VHH) VHH: VQLQESGGGLVQPGGSLRLSCIASGSSFSANTMGWYRQAPGKQRELVATITRGGNTNYGDSVKGRFTISRDNAKNTVYLQMNSLRPEDTAVYYCHIDEIRESTWTTSNLWGQGTQVTVSS" category_label=True
